recorded metric: melting point

melting point in this record for CN(CCn1ncc2ccccc2c1=O)CC(O)c1ccc(NS(C)(=O)=O)cc1 (centres undefined) : 134 to 137 °C

melting point in this record for CONS(=O)(=O)c1ccc(Cl)c(C(F)(F)F)c1 : 88 to 90.5 °C

melting point in this record for CCC(=O)C(Cc1c(F)cccc1F)C(=O)CC : 55 to 56 °C

melting point in this record for CCCCc1nc(N)cc(=O)[nH]1 : 242 to 245 °C

melting point in this record for O=C(O)Cc1nn(-c2nc3ccccc3s2)c(=O)c2ccccc12 : 205 °C

melting point in this record for COc1cc(OC)nc(Oc2cccc3c2C(=O)OC3C#N)n1 (centres undefined) : 157 to 159 °C

melting point in this record for COc1cc(NC(N)=S)cc(OC)c1OC : 203 to 205 °C

melting point in this record for O=C1N(Cc2ccccn2)c2ccccc2C12COc1ccc3nonc3c12 (centres undefined) : 180 to 182 °C

melting point in this record for CCCN(CCC)C(=O)C(=NNc1ccccc1)C(C)=O : 79 to 80 °C

melting point in this record for CCC(c1cnc2c(C)c(NC(=O)c3ccc(-c4ccc(F)cc4)cc3)ccc2c1)N1CCCC1 (centres undefined) : 188 to 191 °C

melting point in this record for N[C@H]1CC[C@H](CN2CCC(=C3c4ccccc4Sc4ccc(Cl)cc43)CC2)CC1 : 128 to 135 °C

melting point in this record for CCCCCCCCCCCCCCCC(=O)Oc1ccc(C(O)CNCCc2ccc(OC)c(OC)c2)cc1 (centres undefined) : 79 to 81 °C

melting point in this record for O=Cc1cc(Br)ccc1Oc1ccc(Cl)c(Cl)c1 : 129 to 132 °C

melting point in this record for O=C(O)CC1(C(=O)OCc2ccccc2)C(=O)N(Cc2ccc(Cl)c(Cl)c2)C(=O)c2cccn21 (centres undefined) : 134 to 136 °C

melting point in this record for CC#CCC(C)(C)C(=O)/C=C/[C@@H]1[C@H]2CC(=O)O[C@H]2C[C@H]1OC(=O)c1ccccc1 : 73 to 74 °C

melting point in this record for CC(=O)c1ccc(C(Br)C(=O)OC(C)(C)C)cc1 (centres undefined) : 54 to 56 °C

melting point in this record for CC(C)(C)CNCc1nc(-c2ccc3c(c2)Nc2ccccc2S3)cs1 : 172 to 174 °C

melting point in this record for Oc1ccc(C(F)(F)F)cc1-n1nc2ccccc2n1 : 119 to 120 °C

melting point in this record for CCCCC(=O)SCC(Cc1ccccc1)C(=O)Nc1cccc(C(=O)O)c1C (centres undefined) : 113 to 114 °C

melting point in this record for COc1ccc(CN[C@@H](C(=O)O)[C@@H](O)[C@H](Cc2ccccc2)NC(=O)OC(C)(C)C)cc1 : 203 to 206 °C

melting point in this record for Cc1cc(N2CCN(c3c(C)c(C)c4c(c3C)CC(C)(C)O4)CC2)ccc1F : 143 to 145 °C

melting point in this record for COC(=O)[C@@H](Cc1ccccc1)NC(=O)OCc1cc2cc(-c3ccccc3)ccc2o1 : 85 to 86 °C

melting point in this record for COc1ccc2c(c1)c(Cc1nc(-c3ccc(Br)cc3)cs1)c(C)n2Cc1ccc(Br)cc1 : 178 to 179 °C

melting point in this record for CCOC(=O)/C=C(/c1ccc(OC)cc1)c1cc(Cl)ccc1Cl : 98 to 100 °C

melting point in this record for Cc1c(Br)c2cnnc(OCc3ccccc3)c2n1Cc1ccccc1 : 122 to 123 °C

melting point in this record for CCC(C)(C)c1ccc(OCCCCNC(=O)c2cc(Sc3nnnn3-c3ccccc3)c3ccccc3c2O)c(C(C)(C)CC)c1 : 147 to 148 °C

melting point in this record for O=Cc1ccc(O)c2ccsc12 : 204 °C

melting point in this record for CCOC(=O)c1cc2cc(N(CC)C(C)=O)ccc2[nH]1 : 149 to 150 °C

melting point in this record for O=[N+]([O-])c1ccc2c(c1)CN(Cc1ccccc1)CC2 : 85 to 86 °C

melting point in this record for CCCC(Cc1ccc(OCc2ccccc2)cc1)C(=O)O (centres undefined) : 83 to 85 °C

melting point in this record for COc1ccc2c(c1O)C13CCN(CC4CC4)C(C2)C1CC(C)C(=O)C3 (centres undefined) : 176 to 178 °C

melting point in this record for CN(Cc1ccccc1)Cc1c(-c2ccc(NC(=O)C(C)(C)O)cc2)sc2c1c(=O)c(C(=O)c1ccccc1)cn2Cc1c(F)cccc1F : 222 to 223 °C

melting point in this record for CC(CCCC(C)(C)O)C1CC(=O)C2=C3CCC4CC(O)CCC4(C)C3CCC21C (centres undefined) : 177 to 179 °C

melting point in this record for COC(=O)CC[C@H](NC(=O)c1ccc(CCn2cnc3nccc-3c2NO)cc1)C(=O)OC : 170 to 172 °C

melting point in this record for CCOC(=O)c1cn(C2CC2)c2c(C)c(N3CCN(C)CC3)c(F)c(Cl)c2c1=O : 175 to 177 °C

melting point in this record for CCCc1ccc(OC)c(-c2csc(N)n2)c1 : 84 °C

melting point in this record for O=C(NC(=O)c1ccccc1F)NC1CN2CCC1CC2 (centres undefined) : 187 to 188 °C

melting point in this record for Cc1cc2oc(=O)c3c(c2cc1C)CCN(CCN1CCCCC1)C3 : 142 to 145 °C

melting point in this record for Cc1c(S(=O)c2cc(Cl)c(Cl)cc2Cl)cc(C(C)(C)C)c(O)c1C(=O)Nc1ccc([N+](=O)[O-])cc1C(F)(F)F (centres undefined) : 234 to 235 °C
